Reference for the values: patent US20230088052A1

# target-under-test: T1, humanized Fc-tagged human IL-4R recombinant protein (h-IL-4R-Fc) (human, UniProt P24394 26-232)
# T1 construct: range 1-232; The printed range starts at Met1, so it includes the signal peptide of the construct; also called Human IL-4R-Fc; not shown: Fc tag
# assay-text: blocking ELISA: human IL-4R-Fc coated, antibody blocks the binding of IL-4
IC50 vs 0.04 µg/mL: less than gives Condition met; not less than gives Condition not met.

Is 0.04 µg/mL strictly greater than the binder's reported IC50? binder: humanized antibody hu25G7 (antibody, human IgG4 S228P, kappa, V domains shown, Uses the VH-c heavy chain and the VL-a light chain; also called wild-type hu25G7) VH: EVQLVESGGGLVQPGGSLRLSCAASGFTFSDYGMHWVRQAPGKGLEWVAFISSGSSIIYYADIVKGRSTISRDNAKNSLYLQMNSLRAEDTAVYYCTRGNKRGFFDYWGQGTLVTVSS VL: EIVLTQSPATLSLSPGERATLSCNASSSVSYMYWYQQKPGQAPRLLIYLTSNLASGIPARFSGSGSGTDFTLTISSLEPEDFAVYYCQQWRSNPPMLTFGGGTKVEIKR
Condition met

Take the binder humanized antibody hu7B10 (antibody, human IgG1, kappa, V domains shown, Uses the VH-b heavy chain and the VL-b light chain) VH: EVQLVQSGAEVKKPGASVKVSCKASGYTFTSYWMHWVRQAPGQGLEWMGLIHPNSDTTKFSENFKTRVTMTIDTSISTAYMELSRLRSDDTAVYYCAKSKIITTIVARHWYFDVWGQGTTVTVSS VL: DIVLTQTPLSLSVTPGQPASISCKASQSVDYGGDSYMNWYLQKPGQPPQLLIYAASNLESGVPDRFSGSGSGTDFTLKISRVEAEDVGVYYCQHSNENPPTFGGGTKVEIKR and say whether its IC50 is less than 0.04 µg/mL.
Condition not met

Just wondering, is IC50 of human-murine chimeric antibody 7B10-C (antibody, V domains shown, Expressed in HEK293 cells) VH: QVQLQQPGTELLKPGASVSLSCKASGYTFTSYWMHWVKQRPGQGLEWIGLIHPNSDTTKFSENFKTRATLTIDKSSSTAYMKLSSLTSEDSAVYYCAKSKIITTIVARHWYFDVWGTGTTVTVSS VL: DIVLTQSPPSLAVSLGQRATISCKASQSVDYGGDSYMNWYQQKLGQPPKVLIYAASNLESGIPARFSGSGSGTDFTLNIHPVEEEDVATYYCQHSNENPPTFGGGTKLEIK below 0.04 µg/mL?
Condition not met

Check if IC50 falls below 0.04 µg/mL for murine monoclonal antibody 25G7 (antibody, V domains shown, also called hybridoma 25G7) VH: EVQLVESGGGLVKPGGSLKLSCAASGFTFSDYGMHWVRQAPEKGLEWVAFISSGSSIIYYADIVKGRSTISRDNAKNTLFLQMTSLRSEDTAMYYCTRGNKRGFFDYWGQGTILTVSS VL: QIVLTQSPALMSASPGEKVTMTCNASSSVSYMYWYQRKPRSSPKPWIYLTSNLASGVPVRFSGSGSGTSYSLTISSMEAEDAATYYCQQWRSNPPMLTFGSGTKLEVK .
Condition met

Consider the additional binder presented here.
IC50 strictly < 0.04 µg/mL for this binder? murine monoclonal antibody 7B10 (antibody, V domains shown, also called hybridoma 7B10) VH: QVQLQQPGTELLKPGASVSLSCKASGYTFTSYWMHWVKQRPGQGLEWIGLIHPNSDTTKFSENFKTRATLTIDKSSSTAYMKLSSLTSEDSAVYYCAKSKIITTIVARHWYFDVWGTGTTVTVSS VL: DIVLTQSPPSLAVSLGQRATISCKASQSVDYGGDSYMNWYQQKLGQPPKVLIYAASNLESGIPARFSGSGSGTDFTLNIHPVEEEDVATYYCQHSNENPPTFGGGTKLEIK
Condition met
